- assay.name: Cellular Toxicity (caspase-3) NIH 3T3 (AID 666);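 note: caspase signal read after 16 h compound exposure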;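 for caspase-3 activation: 0% = DMSO basal and 100% = 100 µM tamoxifen stimulation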
- condition.info: NIH 3T3 caspase-3 activation, apoptosis/toxicity; series mostly up to 92.2 µM
Records with an inconclusive call do not appear. Activity calls are given as the source filed them. Calls come from the whole dose curve; as a rule, active = well fitted activation curve with a large enough effect; inconclusive = small, poorly fitted or top-dose-only effect, or effect the other way; inactive = flat fitted curve, though single readings scatter.
Entry note: the call must match one of 1 (yes) for active, 0 (no) for inactive

Please review the entries below; each comes with its answer.
O=C(O)C(Br)Br 0 (no)
CC(C)CON=O 0 (no)
CCCCNC(=O)n1c(NC(=O)OC)nc2ccccc21 0 (no)

Dear colleague, could you share the recorded outcome for "OCCCCO" when you have a moment?
0 (no)

Would you mind telling me which call this test gave "O=[N+]([O-])c1cc(Cl)c(Cl)c(Cl)c1" ?
1 (yes)

Could you kindly confirm the outcome this assay logged for "CN(C)c1ccc(N)cc1" ?
0 (no)

====

- assay.name: qHTS assay for environmental chemicals that activate the Aryl hydrocarbon Receptor (AhR) signaling pathway (AID 651777); note: % of control where 0% means no effect; nearly all actives have a fitted effect of over 15% in size
- condition.info: 1A2-DRE human hepatoma cells, luciferase, 24 h; active compounds read high
Records with an inconclusive call do not appear.
measurement.label: activation (%)
Supply the numeric figure in %, leaving out any unit text.

Record excerpt, results attached:
O=C(O)c1cccc(Cl)c1 0.728
ClC(Cl)C(Cl)Cl -2.65

Given the molecule "CC(C)CON=O" , write its reported activation.
1.53

Could you please provide reported activation for "Clc1ccc(C(Cl)(Cl)Cl)c(Cl)c1" ? Thanks!
-1.61

Supply reported activation belonging to this molecule: "Oc1c(Cl)c(Cl)cc(Cl)c1Cl"
0.522

Provide one value: measured activation of "Clc1cc(Cl)c(Cl)c(Cl)c1"
0.248

====

// max response lookup, one value per entry
- assayed.system: Retinoic acid receptor RXR-alpha (Homo sapiens) (UniProt P19793)
- Sequence (P19793 whole entry, looked up): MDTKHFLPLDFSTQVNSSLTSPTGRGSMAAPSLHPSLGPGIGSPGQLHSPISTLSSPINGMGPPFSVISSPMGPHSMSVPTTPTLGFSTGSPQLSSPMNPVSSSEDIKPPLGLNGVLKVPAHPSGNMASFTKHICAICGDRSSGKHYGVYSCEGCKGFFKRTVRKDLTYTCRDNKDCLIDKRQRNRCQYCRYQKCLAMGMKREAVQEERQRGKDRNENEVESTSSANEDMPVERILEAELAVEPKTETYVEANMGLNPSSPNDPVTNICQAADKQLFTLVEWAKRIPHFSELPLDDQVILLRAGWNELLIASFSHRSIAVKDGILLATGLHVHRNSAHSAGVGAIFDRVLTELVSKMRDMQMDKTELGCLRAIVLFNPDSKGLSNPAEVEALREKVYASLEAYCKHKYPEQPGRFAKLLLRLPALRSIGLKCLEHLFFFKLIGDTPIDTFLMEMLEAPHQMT
- assay.name: qHTS assay for small molecule antagonists of retinoid X receptor alpha signaling (AID 588546);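 note: cells stimulated with 9-cis-retinoic acid as agonist; % is set by controls: 0 for no effect and ±100 for the full control effect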
- condition.info: HEK293T RXRa-UAS-bla, beta-lactamase ratio, antagonist mode
Records with an inconclusive call do not appear.
Quick reminder: number only, in %, skip the unit.

Consider the worked cases shown below.
CC(C)(OOC(C)(C)c1ccccc1)c1ccccc1 4.95
CSSC 7.08
COC(=O)Nc1cccc(OC(=O)Nc2cccc(C)c2)c1 4.03

Assign max response to the following record: "CC(C)C#N"
2.91

Please supply the value of reported max response for the item "Nc1cc(Cl)ccc1Cl"
3.06

====

- assay.name: qHTS assay for small molecule antagonists of the retinoid-related orphan receptor gamma (ROR-gamma) signaling pathway - cell viability counter screen (AID 720652);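 note: CHO reporter cells with doxycycline-induced ROR-gamma expression; compound exposure lasted 16 hr before ATP read; % is set by controls: 0 for no effect and ±100 for the full control effect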
- condition.info: RORgamma reporter cell line viability counter screen; series mostly up to 92.2 µM
Records with an inconclusive call do not appear. The source made the active and inactive calls. Calls follow the shape of the dose curve; as a rule, active = well fitted cell-killing curve with a large enough effect in the repeat runs; inconclusive = weak or mixed curves, or effect the other way; inactive = flat fitted curve, though single readings scatter.
Outcome field: choose from true for active, false for inactive

Illustrative cases are given below, each with its answer.
molecule	label
CCOP(=S)(OCC)SCCSCC	false
BrC(Br)Br	false
C=CC#N	false
Nc1ncc([N+](=O)[O-])s1	false
[N-]=[N+]=[N-]	false

Could you kindly confirm the outcome this assay logged for "CC(C)Br" ?
false

Assay result, entry "CC(C)OC(=O)Cc1ccccc1" — outcome?
false

How was "C=CC(=O)OC" classified in this test?
false

====

molecules and their reported activation
- assay.name: qHTS assay for small molecule activators of the nuclear factor-kappa B (NF-kB) signaling pathway (AID 651749); note: % of control where 0% means no effect
- condition.info: NF-kB-bla ME-180 cells, beta-lactamase FRET ratio, 16 h; active compounds read high
Results filed as inconclusive are left out.
Please give a number only; it is taken to be in %.

Nc1cc(Cl)ccc1O -0.288
CC[N+](=O)[O-] 1.19
CC(C)C#N -0.872
C=CCCl -0.803

Item "COC(=O)c1ccccc1N" : provide activation
-0.425

// Input: "Nc1cccc(Cl)c1" . Output its activation only.
-1.07

Please give measured activation of the following entry: "Cc1cccc(C)c1N"
-1.09

Return reported activation. Input molecule: "COC(C)(C)C"
1.85

Indicate its recorded activation; the molecule in question is "C=C(C)CCl"
-0.185

Annotate the molecule "Nc1c(Br)cc([N+](=O)[O-])cc1[N+](=O)[O-]" with its measured activation.
-0.945

Input "CCBr" , output reported activation.
-0.926

Determine its reported activation: "C/C=C/C=O"
0.438

Return value of activation for input "N#CC(Br)Br" , no commentary.
-1.36

For "CC(=O)CCC(C)=O" , write its activation.
0.108

Answer with reported activation of "Nc1ccc(Cl)c(Cl)c1"
0.145

====

- assayed.system: Peroxisome proliferator-activated receptor gamma (Homo sapiens)
- assay.name: qHTS assay for small molecule antagonists of peroxisome proliferator-activated receptor gamma signaling (AID 588537);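 note: reporter cells co-stimulated with 50 nM rosiglitazone agonist during compound treatment; % of control where 0% means no effect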
- condition.info: HEK293 PPARg-UAS-bla, beta-lactamase ratio, antagonist mode; series mostly up to 76.8 µM
Inconclusive results are not listed. Active and inactive are the calls of the source. The call rests on the fitted dose curve; in most records, active means well fitted inhibition curve with a large enough effect in the signal ratio, with a control signal flat (not every such curve was filed as active); inconclusive means small, poorly fitted or top-dose-only effect, or effect the other way, or a change in a side signal; inactive means flat fitted curve, though single readings scatter; the % refers to the signal ratio.
measurement.label: outcome

compound	measurement.label	recorded.measurement
CCN(CC)CCO	outcome	inactive
C=CC(=O)OCC(CC)CCCC (stereo not drawn)	outcome	inactive
COc1cc(-c2ccc(N)c(OC)c2)ccc1N	outcome	inactive
CC(C)(C)c1ccccc1O	outcome	inactive
C=CC(=O)OC	outcome	inactive
CCCCCOC(=O)c1ccccc1C(=O)OCCCCC	outcome	inactive
Oc1cc(Cl)cc(Cl)c1	outcome	inactive
OCCBr	outcome	inactive

Okay, now this compound:
Retrieve outcome measured for "CCOP(=S)(OCC)SCCSCC" and print it.
inactive

====

Each entry below lists one item and its recorded activity change, negative = inhibition value.
- assayed.system: Cytochrome P450 1A2 (Homo sapiens) (UniProt P05177)
- Sequence (P05177 whole entry, looked up): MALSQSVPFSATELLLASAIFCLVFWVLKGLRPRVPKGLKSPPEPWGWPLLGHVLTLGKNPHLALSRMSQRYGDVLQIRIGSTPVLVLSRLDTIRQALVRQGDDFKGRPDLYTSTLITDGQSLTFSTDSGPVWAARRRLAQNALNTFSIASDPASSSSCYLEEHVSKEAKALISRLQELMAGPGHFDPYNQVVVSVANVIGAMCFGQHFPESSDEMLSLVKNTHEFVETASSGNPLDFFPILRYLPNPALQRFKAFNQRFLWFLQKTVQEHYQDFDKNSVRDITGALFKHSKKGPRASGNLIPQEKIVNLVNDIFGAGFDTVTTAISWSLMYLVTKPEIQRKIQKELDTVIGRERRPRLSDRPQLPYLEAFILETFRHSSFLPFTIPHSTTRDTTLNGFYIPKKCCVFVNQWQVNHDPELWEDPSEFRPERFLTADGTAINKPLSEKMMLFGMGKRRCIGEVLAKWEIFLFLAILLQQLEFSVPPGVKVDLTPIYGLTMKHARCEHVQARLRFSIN
- assay.name: p450-cyp1a2 (AID 410);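 note: -100% = full effect of reference inhibitor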
- condition.info: recombinant CYP1A2, luciferin-ME demethylation, luminescence; series mostly up to 11.4 µM
Records with an inconclusive call do not appear. Activity calls are given as the source filed them. The call rests on the fitted dose curve.

C[C@]1(O)CC[C@H]2[C@@H]3[C@@H](O)CC4=CC(=O)CC[C@@]4(C)[C@H]3CC[C@]21C 1.4% [at 2.29 µM] (inactive)
Nc1nc(N)c(N=Nc2ccc([As](=O)(O)O)cc2)c(=O)[nH]1 -14.9% [at 2.29 µM] (inactive)
c1ccc(CCN2CCOCC2)nc1 -3% [at 2.29 µM] (inactive)

Now for a further molecule.
Note activity change, negative = inhibition for the molecule shown: "NC(=O)c1ccc(C(=O)Nc2ccc([As](=O)(O)O)cc2)cc1"
-13.8% [at 2.29 µM] (inactive)

====

- assay.name: AP1 Signaling Pathway (AID 357);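 note: ME-180 reporter cells stimulated with EGF at its EC50 level; % is set by controls: 0 for no effect and ±100 for the full control effect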
- condition.info: ME-180 (cervical carcinoma) AP-1-bla reporter, EGF-induced, beta-lactamase ratio, 5 h; at 7.69 µM (top of the series) unless noted
Inconclusive results are not listed.
Here the recorded activity change, negative = inhibition is given for each entry.
Provide only the numeric value, understood in %.

As a guide, the following entries are already answered.
molecule	activity change, negative = inhibition / %
O=C(O)C(O)(c1ccc(-c2ccccc2)cc1)c1ccc(-c2ccccc2)cc1	-25.7
C[C@H](CN(C)C)C(C#N)(c1ccccc1)c1ccccc1	0.906
C[C@@H]1[C@@H](C)N1C[C@H](O)Cn1ccnc1[N+](=O)[O-] (stereo not given in full)	1.57
c1nc(N2CC2)c2cnn([C@@H]3CCCCO3)c2n1	5.4

Provide one value: measured activity change, negative = inhibition of "O=C(Oc1ccc(S(=O)(=O)F)cc1F)c1ccccc1Cl"
-4.95

====

- assay.name: MultiTox-Fluor Cytotoxicity Assay - LYMP1-003 - Dead Cells (AID 961);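 note: cells exposed to compound for 16 h at 37 °C; 0% = DMSO and 100% = tetraoctylammonium bromide; nearly all actives have a fitted effect of over 70% in size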
- condition.info: LYMP1-003 lymphoblastoid cells, dead-cell protease fluorescence; series mostly up to 92.2 µM
Activity calls are given as the source filed them. The call rests on the fitted dose curve; in most records, active means well fitted cell-killing curve with a large enough effect; inconclusive means small, poorly fitted or top-dose-only effect, or effect the other way; inactive means flat fitted curve, though single readings scatter.
measurement.label: outcome

C=CC(=O)OC inactive
CCCCCCCCCCCCCl inactive
ClP(Cl)(Cl)(Cl)Cl inactive
O=[N+]([O-])c1ccc2c3c(cccc13)CC2 inactive

Return value of outcome for input "C/C=C/CC#N" , no commentary.
inactive

Assign outcome to the following record: "[C-]1=CC=CC1.[C-]1=CC=CC1.[Cl-].[Cl-].[Ti+4]"
inactive

For the compound "O=[N+]([O-])c1ccccc1O" , report outcome.
inactive

====

- assayed.system: Peroxisome proliferator-activated receptor delta (Homo sapiens) (UniProt Q03181)
- Sequence (Q03181 whole entry, looked up): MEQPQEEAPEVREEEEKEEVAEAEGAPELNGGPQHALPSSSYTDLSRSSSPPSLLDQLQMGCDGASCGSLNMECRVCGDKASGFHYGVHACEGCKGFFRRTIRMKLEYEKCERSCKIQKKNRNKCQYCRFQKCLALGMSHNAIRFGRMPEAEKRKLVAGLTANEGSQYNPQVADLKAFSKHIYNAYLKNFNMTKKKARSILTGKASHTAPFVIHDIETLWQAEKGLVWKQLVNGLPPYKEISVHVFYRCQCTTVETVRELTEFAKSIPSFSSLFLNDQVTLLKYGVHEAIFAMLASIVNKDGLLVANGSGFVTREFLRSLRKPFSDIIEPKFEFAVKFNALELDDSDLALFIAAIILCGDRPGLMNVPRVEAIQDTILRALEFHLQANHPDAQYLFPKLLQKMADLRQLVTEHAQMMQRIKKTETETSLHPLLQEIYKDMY
- assay.name: qHTS assay for small molecule agonists of peroxisome proliferator-activated receptor delta signaling (AID 588534);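 note: 0% = DMSO basal wells and 100% = positive control agonist at 10 µM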
- condition.info: HEK293T PPARdelta-UAS-bla, beta-lactamase ratio, 18 h; series mostly up to 76.7 µM
Results filed as inconclusive are left out. Activity calls are given as the source filed them. Calls follow the shape of the full dose curve.

compound	outcome
CCCCCCCCCCCCCl	inactive
Nc1cc(Cl)ccc1O	inactive
CCC(Cl)[N+](=O)[O-] (stereo not drawn)	inactive

====

Quick reference for caspase-3 activation among some molecules
- assay.name: Cellular Toxicity (caspase-3) Hek293 (AID 664);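 note: cells exposed to compound for 16 h at 37 °C before readout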
- condition.info: HEK293 caspase-3 activation, DMSO = 0%, 100 µM tamoxifen = 100%; at 92.2 µM (top of the series)
Records with an inconclusive call do not appear.
Record the value in %, omitting the unit from your answer.

Take a look at these entries with their results.
molecule	recorded.measurement
Nn1cnnc1	0.966
C=C(Cl)CSC(=S)N(CC)CC	0.963
CN(C)c1ccc(N)cc1	2.4
Nc1ccc([N+](=O)[O-])cc1N	0.611
Oc1ccc(Cl)c(Cl)c1	0.945

Provide measured caspase-3 activation value, entry: "CCCC[N+](=O)[O-]"
23.2

Note caspase-3 activation for the molecule shown: "Cc1ccc(N)c(N)c1"
8.54

Please report the measured caspase-3 activation for "N#CCCCCC#N"
0.323

Cited source for all entries: PubChem BioAssay (NCATS)
